# Test system: IGROV-1
# experiment.summary: NCI tumour cell line growth inhibition, 48 h
Calls of active or inactive are those of the source. No stated cut-off is given here; in the data, active = GI50 up to about 1.1 µM and inactive = higher.
The reader will find reported GI50 values listed item by item below.
quantity.name: GI50

| molecule | quantity.name | reading |
| --- | --- | --- |
| C[C@H](NC(=O)n1c2ccccc2c2ccccc21)C(=O)O | GI50 | > 100 µM (inactive) |
| O=C(Cn1c2c(c3ccccc31)CCCC2)NC1CCCCC1 | GI50 | 22.5 µM (inactive) |
| O=C1C=CC(=O)c2c1c1c(c3c2C2c4ccccc4C3c3ccccc32)C2c3ccccc3C1c1ccccc12 | GI50 | 7.06 µM (inactive) |
| COc1ccc(/C=C2\OC(=O)C(Cl)=C2c2ccc(OC)cc2)cc1 | GI50 | > 100 µM (inactive) |
| COCC(/N=C\N1CCCc2ccccc2[C@@H]1CCCCl)C(C)(C)C (stereo partly specified) | GI50 | 0.353 µM (active) |
| N=c1c2c(-c3ccccc3)c[nH]c2ncn1N | GI50 | > 100 µM (inactive) |

----------
# Test system: NCI-H23
# experiment.summary: NCI tumour cell line growth inhibition, 48 h
The source made the active and inactive calls. No stated cut-off is given here; in the data, active = GI50 up to about 1.1 µM and inactive = higher.
Outcomes: active, inactive

| molecule | category.label |
| --- | --- |
| COc1cc(C2C(Cl)C(=O)N2NC(=O)c2ccc(N)cc2)cc(Br)c1O (stereo unspecified) | inactive |
| O=C(/C=C\c1ccc(Cl)c(Cl)c1)c1ccc(Cl)cc1Cl | active |
| N#C/C(=C(\O)C(=O)O)c1ccc(-c2cccc3ccccc23)cc1 | inactive |
| NC1=CN2c3ccccc3N(CC(=O)N3CCOCC3)C2C=C1 (stereo unspecified) | inactive |
| COc1cc(Nc2c(C#N)[n+]([O-])c3ccccc3[n+]2[O-])cc(OC)c1OC | inactive |
| CC(=O)c1c(P(=O)(OC(C)C)OC(C)C)nn(-c2ccc([N+](=O)[O-])cc2)c1C | inactive |
| O=C(c1ccc(Cl)c(Cl)c1)N(C(=O)N1CCN(c2ccccc2)CC1)S(=O)(=O)c1ccccc1 | inactive |
| COC(=O)[C@H](Cc1ccc(OC(C)(C)C)cc1)N[C@H](C)C(=O)N[C@@H](Cc1ccccc1)C(=O)OCc1ccccc1 | inactive |
| NNc1ncc2c(n1)-c1ccccc1OC2 | inactive |
| Cc1c(Cl)cccc1NC(=O)c1cccc([N+](=O)[O-])c1O | inactive |
| O=C(Cn1c2c(c3ccccc31)CCCC2)NC1CCCCC1 | inactive |
| NC(=O)NN=C1Cc2ccccc2C1 | inactive |
| COc1ccc2c(c1O)-c1cc(O)cc3c1[C@@H](C2)N(C)CC3 | inactive |
| Cc1ccc(C(=O)OC(C)C)cc1/N=N/N(C)C | inactive |
| COc1ccccc1NS(=O)(=O)c1ccc2ncn(NS(=O)(=O)c3ccc(Cl)cc3)c(=O)c2c1 | inactive |
| O=C(Nc1ccc(Cl)cc1Cl)OC(Cn1cncn1)c1ccc(Cl)cc1Cl (stereo unspecified) | inactive |
| O=C1C=C(Nc2ccc(Br)cc2)c2ccccc2C1=O | inactive |
| O=C(O)CNC(=O)CO/N=C1/C(=C2/C(=O)Nc3ccccc32)Nc2ccccc21 | inactive |
| CO[C@@H]1[C@H](OC(=O)NC(=O)CCl)CC[C@]2(CO2)[C@H]1[C@@]1(C)O[C@@H]1CC=C(C)C | inactive |
| CCOP1(=O)CC(C)=C(Cl)C(O)C1 (stereo unspecified) | inactive |
| C/C=C\C(CC(=O)NCCC1CN(C(=O)OCc2ccccc2)c2ccccc21)CC(=O)OC (stereo unspecified) | inactive |
